STUDY SYSTEM: MDM2 (Homo sapiens, UniProt Q00987)
Sequence (Q00987 whole entry): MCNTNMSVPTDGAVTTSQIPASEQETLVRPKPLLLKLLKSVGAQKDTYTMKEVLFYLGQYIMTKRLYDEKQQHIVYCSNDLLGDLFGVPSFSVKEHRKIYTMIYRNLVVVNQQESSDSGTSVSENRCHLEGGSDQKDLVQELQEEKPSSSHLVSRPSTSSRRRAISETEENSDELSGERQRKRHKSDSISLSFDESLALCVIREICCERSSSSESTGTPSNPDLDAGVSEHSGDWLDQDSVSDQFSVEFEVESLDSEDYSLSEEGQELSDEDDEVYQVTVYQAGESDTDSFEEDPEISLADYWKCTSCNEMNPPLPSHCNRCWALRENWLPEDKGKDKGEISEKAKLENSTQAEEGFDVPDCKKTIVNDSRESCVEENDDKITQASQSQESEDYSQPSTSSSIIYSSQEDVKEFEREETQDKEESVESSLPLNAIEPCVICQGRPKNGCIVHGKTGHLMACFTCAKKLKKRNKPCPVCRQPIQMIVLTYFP
EXPERIMENT DESCRIPTION: MDM2 binding screen: displacement of fluorescent p53 peptide probe FP53 (fluorescence polarization)
PROTOCOL CONDITIONS: Acid 91; initial screen; crude macrocycle reactions
Numbered stars: 1 amine (or outer) side, 2 acyl side, 3 side chain; on linkers, the order of the positions; unused ones are H or OH. Bridge positions count the residues as written; N and C are the ends. Square brackets hold non-standard residues; d marks the D form. Peptide text beside a SMILES is read from it. * marks the point of attachment. Cysteamide = C(CS[*:3])N[*:1]; X1 = O=C(/C=C/c1ccccc1)*; Api = NC1(C(=O)O)CCNCC1; Dap = NC[C@H](N)C(=O)O; X2 = O=C(C=Cc1ccccc1)*; Mpa = O=C(O)CCS
Each entry below lists one item and its recorded fraction fluorescent probe displaced, Screen value.
RECORDED ENDPOINT: fraction fluorescent probe displaced, Screen

COMPOUND	OBS VALUE
O=C(/C=C/c1ccccc1)N[C@H]1C[C@H]2C(=O)N[C@@H](Cc3ccccc3)C(=O)NCc3cccc(c3)C(=O)NCCSSCCC(=O)N2C1	-0.05
O=C(C=Cc1ccccc1)NCC1NC(=O)C(Cc2ccccc2)NC(=O)C2CCCN(C2)C(=O)CCSSCCNC1=O (centres unmarked)	0.03
O=C(/C=C/c1ccccc1)NC[C@@H]1NC(=O)[C@@H]2CCCN2C(=O)CCSSCCNC(=O)[C@H](Cc2c[nH]c3ccccc23)NC1=O [X B1 D3 W Acid 91] ([Mpa]P[Dap](X1)W-Cysteamide; disulfide 1-C)	0.11
O=C(/C=C/c1ccccc1)NC[C@@H]1NC(=O)[C@H](Cc2ccccc2)NC(=O)CCNC(=O)CCSSCCNC1=O	0.03
O=C1CCSSCCNC(=O)C2(CCN(C(=O)C=Cc3ccccc3)CC2)NC(=O)C(Cc2c[nH]c3ccccc23)NC(=O)CCN1 (centres unmarked)	0.0563
O=C(/C=C/c1ccccc1)NC[C@@H]1NC(=O)[C@H](Cc2ccccc2)NC(=O)CCSSCCNC(=O)[C@@H]2CCCN2C1=O [X F D3 B1 Acid 91] ([Mpa]F[Dap](X1)P-Cysteamide; disulfide 1-C)	-0.0241
O=C1CCNC(=O)[C@H](Cc2c[nH]c3ccccc23)NC(=O)C2(CCN(C(=O)/C=C/c3ccccc3)CC2)NC(=O)CCSSCCN1	0.14
O=C1NCCSSCCC(=O)N2CCN(C(=O)C=Cc3ccccc3)CC2C(=O)NC(Cc2ccccc2)C(=O)NCc2cccc1c2 (centres unmarked)	0.0563
O=C1CCSSCCNC(=O)C2(CCN(C(=O)C=Cc3ccccc3)CC2)NC(=O)CCNC(=O)C(Cc2ccccc2)N1 (centres unmarked)	0.0563
O=C(/C=C/c1ccccc1)NC[C@@H]1NC(=O)CCSSCCNC(=O)[C@H](Cc2c[nH]c3ccccc23)NC(=O)[C@@H]2CCCN2C1=O [X D3 B1 W Acid 91] ([Mpa][Dap](X1)PW-Cysteamide; disulfide 1-C)	-0.0241
O=C1NC2(CCN(C(=O)C=Cc3ccccc3)CC2)C(=O)NCCSSCCC(=O)N2CCCC2C(=O)NC1Cc1ccccc1 (centres unmarked) [X B1 F D6 Acid 91] ([Mpa]PF[Api](X2)-Cysteamide; disulfide 1-C; configuration not given here)	0.00268

* * *

STUDY SYSTEM: MDM2 (Homo sapiens)
EXPERIMENT DESCRIPTION: MDM2 binding screen: displacement of fluorescent p53 peptide probe FP53 (fluorescence polarization)
PROTOCOL CONDITIONS: 10 µM macrocycle concentration; crude acylated macrocycle (scaffold Mpa-AA1-AA2-AA3 x carboxylic acid); p53-based fluorescent peptide, human MDM2
Numbered stars: 1 amine (or outer) side, 2 acyl side, 3 side chain; on linkers, the order of the positions; unused ones are H or OH. Bridge positions count the residues as written; N and C are the ends. Square brackets hold non-standard residues; d marks the D form. Peptide text beside a SMILES is read from it. * marks the point of attachment. Isoxazole3carbonyl(5-Me) = Cc1cc(C(=O)*)no1; Isoorotoyl = O=C(c1c[nH]c(=O)[nH]c1=O)*; X11 = O=C(c1cccc(S(F)(F)(F)(F)F)c1)*; Pyrazinecarbonyl = O=C(c1cnccn1)*; Cysteamide = C(CS[*:3])N[*:1]; Dap = NC[C@H](N)C(=O)O; Mpa = O=C(O)CCS
RECORDED ENDPOINT: fraction fluorescent probe displaced

COMPOUND	RECORDED ENDPOINT	OBS VALUE
O=C(NC[C@@H]1NC(=O)[C@@H]2CCCN2C(=O)CCSSCCNC(=O)[C@H](Cc2ccccc2)NC1=O)c1cnccn1 [X-B1-D3-F + A2] ([Mpa]P[Dap](Pyrazinecarbonyl)F-Cysteamide; disulfide 1-C)	fraction fluorescent probe displaced	0.08617
Cc1cc(C(=O)NC[C@@H]2NC(=O)[C@@H]3CCCN3C(=O)CCSSCCNC(=O)[C@H](Cc3ccccc3)NC2=O)no1 [X-B1-D3-F + A3] ([Mpa]P[Dap](Isoxazole3carbonyl(5-Me))F-Cysteamide; disulfide 1-C)	fraction fluorescent probe displaced	0.08125
O=C(NC[C@@H]1NC(=O)[C@@H]2CCCN2C(=O)CCSSCCNC(=O)[C@H](Cc2c[nH]c3ccccc23)NC1=O)c1cccc(S(F)(F)(F)(F)F)c1 [X-B1-D3-W + A19] ([Mpa]P[Dap](X11)W-Cysteamide; disulfide 1-C)	fraction fluorescent probe displaced	0.1429
O=C(NC[C@@H]1NC(=O)[C@@H]2CCCN2C(=O)CCSSCCNC(=O)[C@H](Cc2ccccc2)NC1=O)c1c[nH]c(=O)[nH]c1=O [X-B1-D3-F + A11] ([Mpa]P[Dap](Isoorotoyl)F-Cysteamide; disulfide 1-C)	fraction fluorescent probe displaced	0.04782
